Test system: Candida albicans
Procedure summary: Antimicrobial activity against Candida albicans isolate C after 24 hrs by microdilution method
Type: functional
*1 amine or outer side, *2 acyl side, *3 side chain or, on linkers, in order; H or OH if unused. Where a SMILES comes first, the peptide text is derived from it. Bridges are numbered along the chain shown (N, C = ends). [ ]: non-standard residue; d: D form. The star is where a group is joined. pTerphenylCO(4''-OnC5H11) = CCCCCOc1ccc(-c2ccc(-c3ccc(C(=O)*)cc3)cc2)cc1; Orn(4R-OH,5R-OH) = O=C([C@H](C[C@@H](O)[C@@H](O)N[*:3])N[*:1])[*:2]; hTyr(3S-OH,4S-OH) = N[C@H](C(=O)O)[C@H](O)[C@@H](O)c1ccc(O)cc1; Pro(3S-OH,4S-Me) = C[C@H]1CN[C@H](C(=O)O)[C@H]1O; Hyp = O=C(O)[C@@H]1C[C@@H](O)CN1
MIC for assorted compounds
Measurement kind: MIC

OC(Cn1cncn1)(Cn1cncn1)c1ccc(F)cc1F	0.25 µg/mL
C[C@@H](c1ncncc1F)[C@](O)(Cn1cncn1)c1ccc(F)cc1F	≤ 0.03 µg/mL
CC[C@H](C)C[C@H](C)CCCCCCCCC(=O)N[C@H]1C[C@@H](O)[C@@H](NCCN)NC(=O)[C@@H]2[C@@H](O)CCN2C(=O)[C@H]([C@H](O)CCN)NC(=O)[C@H]([C@H](O)[C@@H](O)c2ccc(O)cc2)NC(=O)[C@@H]2C[C@@H](O)CN2C(=O)[C@H]([C@@H](C)O)NC1=O	≤ 0.06 µg/mL
CCCCCOc1ccc(-c2ccc(-c3ccc(C(=O)N[C@H]4C[C@@H](O)[C@@H](O)NC(=O)[C@@H]5[C@@H](O)[C@@H](C)CN5C(=O)[C@H]([C@@H](C)O)NC(=O)[C@H]([C@H](O)[C@@H](O)c5ccc(O)cc5)NC(=O)[C@@H]5C[C@@H](O)CN5C(=O)[C@H]([C@@H](C)O)NC4=O)cc3)cc2)cc1 [ANIDULAFUNGIN] ({pTerphenylCO(4''-OnC5H11)}-[Orn(4R-OH,5R-OH)]T[Hyp][hTyr(3S-OH,4S-OH)]T[Pro(3S-OH,4S-Me)]; lactam 1-C)	0.015 µg/mL
CCC(C)n1ncn(-c2ccc(N3CCN(c4ccc(OCC5COC(Cn6cncn6)(c6ccc(Cl)cc6Cl)O5)cc4)CC3)cc2)c1=O (stereo unspecified)	≤ 0.03 µg/mL
CC[C@@H]([C@H](C)O)n1ncn(-c2ccc(N3CCN(c4ccc(OC[C@@H]5CO[C@@](Cn6cncn6)(c6ccc(F)cc6F)C5)cc4)CC3)cc2)c1=O	≤ 0.03 µg/mL
